Origin of values: patent US9517244B2

- System: A172
- assay-info: MTT assay, brain cancer cell line
- Assay type: cell-based
- experimental-context: Homo sapiens, A 172, 120 h, single agent, read-out: IC50 of NSC-30049
metric-name: pIC50
Conceptually, pIC50 converts a concentration in mol/L into minus its log10.

IN: Which measured pIC50 value corresponds to ClCC=CC[N+]12CN3CN(CN(C3)C1)C2 [NSC-30049] ?
OUT: 5.19

====

- Test system: HT29
- assay-info: MTT assay, MMR-proficient colon cancer cell line
- Assay type: cell-based
- experimental-context: Homo sapiens, HT-29, 72 h, NSC-30049 1.0 μM, 72 h, read-out: IC50 of TMZ
metric-name: pIC50
Conceptually, pIC50 converts a concentration in mol/L into minus its log10.

IN: Which measured pIC50 value corresponds to Cn1nnc2c(C(N)=O)ncn2c1=O [TMZ, Temozolomide] ?
OUT: 3.09

====

- System: LoVo
- assay-info: MTT assay, MMR-deficient colon cancer cell line
- Type: cell-based
- experimental-context: Homo sapiens, 72 h, NSC-30049 0 μM, 72 h, read-out: IC50 of TMZ
metric-name: IC50
Note to self: number, then unit, no commentary.

IN: Find the measured IC50: item Cn1nnc2c(C(N)=O)ncn2c1=O [TMZ, Temozolomide] , target or system LoVo.
OUT: 1110 µM

====

- Tested on: PANC1
- assay-info: MTT assay, pancreatic cancer cell line
- Format: cell-based, human
- experimental-context: PANC1; NSC-30049 1.0 μM; no dFdC; 72 h; read-out: IC50 of CDDP
metric-name: pIC50
Conceptually, pIC50 converts a concentration in mol/L into minus its log10.

IN: Which measured pIC50 value corresponds to [NH2][Pt]([NH2])([Cl])[Cl] [CDDP, cisplatin] ?
OUT: 5.11

====

- Test system: PANC1
- assay-info: MTT assay, pancreatic cancer cell line
- Format: cell-based, human
- experimental-context: Homo sapiens, PANC-1; PANC1 (dFdC-resistant); single agent; 72 h; read-out: IC50
Property: IC50; scope: individual compounds
Give the value in µM but do not write µM after it.

{"columns": ["structure-notation", "IC50 / µM"],
 "data": [
  ["ClCC=CC[N+]12CN3CN(CN(C3)C1)C2", 5.12]
]}

With those in mind, consider the next compound.
IN: Find the measured IC50: item `Nc1ccn([C@@H]2O[C@H](CO)[C@@H](O)C2(F)F)c(=O)n1` , target or system PANC1.
OUT: 11.6

====

- Tested on: HCT-116 + ch3
- assay-info: MTT assay, MMR-proficient colon cancer cell line
- Format: cell-based
- experimental-context: NSC-30049 2.5 μM, 48 h, read-out: IC50 of oxaliplatin
- Procedure: The use of NSC-30049 as a chemopreventive agent for the treatment of colon cancer was also tested. […] The cell growth inhibition was determined by MTT assay. […] In addition to temozolomide, oxaliplatin is another chemotherapeutic agent used for the treatment of colon cancer. […] The cell growth inhibition was determined by MTT assay. […]
metric-name: pIC50
Conceptually, pIC50 converts a concentration in mol/L into minus its log10.

IN: Which measured pIC50 value corresponds to `O=C1[O][Pt]2([NH][C@@H]3CCCC[C@H]3[NH]2)[O]C1=O` ?
OUT: 6.04

====

- Test system: HPAC
- assay-info: MTT assay, pancreatic cancer cell line
- Assay type: cell-based, human
- experimental-context: HPAC; NSC-30049 0 μM; 0.025 μM dFdC; 72 h; read-out: IC50 of CDDP
metric-name: pIC50
Conceptually, pIC50 converts a concentration in mol/L into minus its log10.

IN: Which measured pIC50 value corresponds to [NH2][Pt]([NH2])([Cl])[Cl] [CDDP, cisplatin] ?
OUT: 4.86

====

- Tested on: HCT-116 + ch3
- assay-info: MTT assay, MMR-proficient colon cancer cell line
- Assay type: cell-based
- experimental-context: Homo sapiens, HCT-116, 72 h, NSC-30049 5.0 μM, 72 h, read-out: IC50 of TMZ
metric-name: pIC50
Conceptually, pIC50 converts a concentration in mol/L into minus its log10.

IN: Which measured pIC50 value corresponds to Cn1nnc2c(C(N)=O)ncn2c1=O [TMZ, Temozolomide] ?
OUT: 6.46

====

- Tested on: LoVo
- assay-info: MTT assay, MMR-deficient colon cancer cell line
- Assay type: cell-based
- experimental-context: Homo sapiens, 72 h, NSC-30049 2.5 μM, 72 h, read-out: IC50 of TMZ
metric-name: IC50 (µM)
Give the value in µM but do not write µM after it.

IN: Which measured IC50 value corresponds to Cn1nnc2c(C(N)=O)ncn2c1=O [TMZ, Temozolomide] ?
OUT: 3.82

====

- Tested on: BxPC3
- assay-info: MTT assay, pancreatic cancer cell line
- Assay type: cell-based, human
- experimental-context: BxPC3; NSC-30049 0 μM; 48 h; read-out: IC50 of Oxaliplatin
metric-name: pIC50
Conceptually, pIC50 converts a concentration in mol/L into minus its log10.

IN: Which measured pIC50 value corresponds to `O=C1[O][Pt]2([NH][C@@H]3CCCC[C@H]3[NH]2)[O]C1=O` ?
OUT: 5.70

====

- Tested on: Mia-PaCa2
- assay-info: MTT assay, pancreatic cancer cell line
- Type: cell-based, human
- experimental-context: Mia-PaCa2; NSC-30049 0.5 μM; 1 μM dFdC; 72 h; read-out: IC50 of CDDP
metric-name: IC50 (nM)
Give the value in nM but do not write nM after it.

IN: Which measured IC50 value corresponds to [NH2][Pt]([NH2])([Cl])[Cl] [CDDP, cisplatin] ?
OUT: 90

====

- System: HCT-116
- assay-info: MTT assay, MMR-deficient colon cancer cell line
- Type: cell-based
- experimental-context: NSC-30049 2.5 μM, 48 h, read-out: IC50 of oxaliplatin
- Procedure: The use of NSC-30049 as a chemopreventive agent for the treatment of colon cancer was also tested. […] The cell growth inhibition was determined by MTT assay. […] In addition to temozolomide, oxaliplatin is another chemotherapeutic agent used for the treatment of colon cancer. […] The cell growth inhibition was determined by MTT assay. […]
metric-name: pIC50
Conceptually, pIC50 converts a concentration in mol/L into minus its log10.

IN: Which measured pIC50 value corresponds to O=C1[O][Pt]2([NH][C@@H]3CCCC[C@H]3[NH]2)[O]C1=O [Oxaliplatin, oxaliplatin] ?
OUT: 7.52

====

- System: AsPC1
- assay-info: MTT assay, pancreatic cancer cell line
- Type: cell-based, human
- experimental-context: AsPC1; NSC-30049 2.5 μM; no dFdC; 72 h; read-out: IC50 of CDDP
metric-name: IC50 (nM)
Give the value in nM but do not write nM after it.

IN: Which measured IC50 value corresponds to [NH2][Pt]([NH2])([Cl])[Cl] [CDDP, cisplatin] ?
OUT: 200

====

- System: BxPC3
- assay-info: MTT assay, pancreatic cancer cell line
- Type: cell-based, human
- experimental-context: BxPC3; NSC-30049 0 μM; no dFdC; 72 h; read-out: IC50 of CDDP
metric-name: IC50 (µM)
Give the value in µM but do not write µM after it.

IN: Which measured IC50 value corresponds to [NH2][Pt]([NH2])([Cl])[Cl] [CDDP, cisplatin] ?
OUT: 1.96

====

- Test system: U87MG
- assay-info: MTT assay, brain cancer cell line
- Assay type: cell-based
- experimental-context: Homo sapiens, U-87 MG, 120 h, NSC-30049 5.0 μM, read-out: IC50 of TMZ
metric-name: IC50 (µM)
Give the value in µM but do not write µM after it.

IN: Which measured IC50 value corresponds to Cn1nnc2c(C(N)=O)ncn2c1=O [TMZ, Temozolomide] ?
OUT: 13.7
